- Tested on: DERL-7 (IL-2 2.5 ng/mL)
- Test description: percent inhibition of viability; higher = more inhibition
- Test settings: 72 h; 10 nM
percent inhibition of viability values, listed per item
Quantity kind: percent inhibition of viability (%)

Molecule	Tested on	Quantity kind	Assay value
Cc1cccc(-c2nn3c(c2-c2ccnc4ccc(C(N)=O)cc24)CCC3)n1 [Galunisertib] (max concentration tested 1000 nM)	DERL-7 (IL-2 2.5 ng/mL)	percent inhibition of viability	4.85
CC(C)Oc1cc(Nc2nc(N[C@@H](C)c3ccc(F)cn3)ncc2Cl)n[nH]1 [AZ-23] (max concentration tested 1000 nM)	DERL-7 (IL-2 2.5 ng/mL)	percent inhibition of viability	4.42
Cc1ccc(Nc2nccc(N(C)c3ccc4c(C)n(C)nc4c3)n2)cc1S(N)(=O)=O [Pazopanib] (max concentration tested 10000 nM)	DERL-7 (IL-2 2.5 ng/mL)	percent inhibition of viability	9.12
Nc1ccccc1NC(=O)c1ccc(CNc2nccc(-c3cccnc3)n2)cc1 [Mocetinostat] (max concentration tested 10000 nM)	DERL-7 (IL-2 2.5 ng/mL)	percent inhibition of viability	-7.01
CCCCCCCCc1ccc(CCC(N)(CO)CO)cc1 [Fingolimod] (max concentration tested 10000 nM)	DERL-7 (IL-2 2.5 ng/mL)	percent inhibition of viability	-1.97
CCN(CC)CCNC(=O)c1c(C)[nH]c(/C=C2\C(=O)Nc3ccc(F)cc32)c1C [Sunitinib] (max concentration tested 1000 nM)	DERL-7 (IL-2 2.5 ng/mL)	percent inhibition of viability	-4.27
Oc1nc(-c2ccc(C(F)(F)F)cc2)nc2c1CSCC2 [XAV-939] (max concentration tested 10000 nM)	DERL-7 (IL-2 2.5 ng/mL)	percent inhibition of viability	2.31

###

- Tested on: NK-YS (IL-2 2.5 ng/mL)
- Test description: relative IC50 (inflection point of fitted viability curve, relative to fitted max inhibition); higher = less sensitive
- Test settings: 72 h
# binarize relative IC50: threshold 500 nM inclusive, high side 1.0, low side 0.0

Smiles data	Class
COC[C@H](NC(=O)c1cnc(C)s1)C(=O)N[C@@H](COC)C(=O)N[C@@H](Cc1ccccc1)C(=O)[C@@]1(C)CO1	0.0
CC1(COc2ccc3c(c2)ncn3-c2ccc3cccc(N4CCC(N)CC4)c3n2)COC1	1.0
O=C(CCCCCCC(=O)Nc1ccc([C@H]2O[C@@H](CSc3nc(-c4ccccc4)c(-c4ccccc4)o3)C[C@@H](c3ccc(CO)cc3)O2)cc1)NO	1.0
CC[C@]1(O)C[C@H]2CN(CCc3c([nH]c4ccccc34)[C@@](C(=O)OC)(c3cc4c(cc3OC)N(C=O)[C@H]3[C@@](O)(C(=O)OC)[C@H](OC(C)=O)[C@]5(CC)C=CCN6CC[C@]43[C@@H]65)C2)C1	0.0
CC[C@H](C)C(=O)O[C@H]1C[C@@H](C)C=C2C=C[C@H](C)[C@H](CC[C@@H]3C[C@@H](O)CC(=O)O3)[C@H]21	1.0

###

- Test system: NK-YS (IL-2 2.5 ng/mL)
- Test description: drug sensitivity score (DSS) (DSS units); higher = more sensitive; extreme values may be limits of the assay
- Test settings: 72 h

Compound	drug sensitivity score
COc1cc(OC)c(/C=C/S(=O)(=O)Cc2ccc(OC)c(NCC(=O)O)c2)c(OC)c1 [Rigosertib] (max concentration tested 10000 nM)	23
CC(=O)OC[C@H]1O[C@@H]([S-])[C@H](OC(C)=O)[C@@H](OC(C)=O)[C@@H]1OC(C)=O.CCP(CC)CC.[Au+] [Auranofin] (max concentration tested 2500 nM)	6.36
CN[C@@H](C)C(=O)N[C@H](C(=O)N1CCC[C@H]1c1nc(C(=O)c2ccc(F)cc2)cs1)C1CCCCC1 [LCL161] (max concentration tested 25000 nM)	0.39
CC(C)Oc1cc(Nc2nc(N[C@@H](C)c3ccc(F)cn3)ncc2Cl)n[nH]1 [AZ-23] (max concentration tested 1000 nM)	0.85
CC[C@H](C)C(=O)O[C@H]1C[C@@H](C)C=C2C=C[C@H](C)[C@H](CC[C@@H]3C[C@@H](O)CC(=O)O3)[C@H]21 [Lovastatin] (max concentration tested 10000 nM)	4.64
C[C@H](Nc1ncnc2nc[nH]c12)c1cc2cccc(Cl)c2c(=O)n1-c1ccccc1 [Duvelisib] (max concentration tested 500 nM)	0.07
O=C(CCCCCCNC(=O)c1cnc(N(c2ccccc2)c2ccccc2)nc1)NO [Rocilinostat] (max concentration tested 10000 nM)	9.02

###

- Tested on: SNK-6 (IL-2 2.5 ng/mL)
- Test description: percent inhibition of viability; higher = more inhibition
- Test settings: 72 h; 10 nM
percent inhibition of viability values, listed per item
Quantity kind: percent inhibition of viability (%)

Compound	Assay value
CN(N=O)C(=O)N[C@@H](C=O)[C@@H](O)[C@H](O)[C@H](O)CO [Streptozocin] (max concentration tested 10000 nM)	18.1
CCCc1cc(C)[nH]c(=O)c1CNC(=O)c1cc(-c2ccnc(N3CCN(C)CC3)c2)cc2c1cnn2C(C)C [GSK343] (max concentration tested 10000 nM)	5.94
O=C(O)CCCc1ccc(N(CCCl)CCCl)cc1 [Chlorambucil] (max concentration tested 10000 nM)	25.1
C[C@@H](C(=O)O)c1ccc(-c2ccccc2)c(F)c1 [Tarenflurbil] (max concentration tested 10000 nM)	-28.7
CC1(C)NC(=O)N(c2ccc([N+](=O)[O-])c(C(F)(F)F)c2)C1=O [Nilutamide] (max concentration tested 10000 nM)	-24.8
CCc1cnn2c(NCc3ccc[n+]([O-])c3)cc(N3CCCC[C@H]3CCO)nc12 [Dinaciclib] (max concentration tested 1000 nM)	81.4
Nc1nc(Nc2ccc3c(c2)CC[C@@H](N2CCCC2)CC3)nn1-c1cc2c(nn1)-c1ccccc1CCC2 [BGB324] (max concentration tested 10000 nM)	12.3
Nc1ccccc1NC(=O)c1ccc(CNc2nccc(-c3cccnc3)n2)cc1 [Mocetinostat] (max concentration tested 10000 nM)	-9.13
CC1(COc2ccc3c(c2)ncn3-c2ccc3cccc(N4CCC(N)CC4)c3n2)COC1 [Crenolanib] (max concentration tested 10000 nM)	16.3
N#Cc1ccc2[nH]c(O)c(-c3ccc(CN4CCOCC4)cn3)c2c1 [AZD-1080] (max concentration tested 10000 nM)	-18.9
Cc1c(N)nc([C@H](CC(N)=O)NC[C@H](N)C(N)=O)nc1C(=O)N[C@H](C(=O)N[C@H](C)[C@@H](O)[C@H](C)C(=O)N[C@H](C(=O)NCCc1nc(-c2nc(C(=O)NCCC[S+](C)C)cs2)cs1)[C@@H](C)O)[C@@H](OC1OC(CO)C(O)C(O)C1OC1OC(CO)C(O)C(OC(N)=O)C1O)c1cnc[nH]1 (some centres not stated) [Bleomycin] (max concentration tested 10000 nM)	19.8
C=CCN(/C=C1/C(=O)O[C@H](COC)[C@@]2(C)C1=C(O)C(=O)C1=C2[C@H](OC(C)=O)C[C@]2(C)C(=O)CC[C@@H]12)CC=C [Sonolisib] (max concentration tested 10000 nM)	-20.8

###

- Tested on: YT (IL-2 2.5 ng/mL)
- Test description: percent inhibition of viability; higher = more inhibition
- Test settings: 72 h; 1 nM
Quantity kind: percent inhibition of viability

Compound	Assay value
CO[C@H]1C[C@@H]2CC[C@@H](C)[C@@](O)(O2)C(=O)C(=O)N2CCCC[C@H]2C(=O)O[C@H]([C@H](C)C[C@@H]2CC[C@@H](OCCO)[C@H](OC)C2)CC(=O)[C@H](C)/C=C(\C)[C@@H](O)[C@@H](OC)C(=O)[C@H](C)C[C@H](C)/C=C/C=C/C=C/1C [Everolimus] (max concentration tested 100 nM)	15.8%
Nc1nc(OCc2cc(Br)cs2)c2[nH]cnc2n1 [Lomeguatrib] (max concentration tested 10000 nM)	-3.67%

###

- Test system: normal primary NK cells, pool 2 (3 donors) (IL-2 2.5 ng/mL)
- Test description: percent inhibition of viability; higher = more inhibition
- Test settings: 72 h; 100 nM

Compound	percent inhibition of viability
CC(C)c1c(C(=O)Nc2ccccc2)c(-c2ccccc2)c(-c2ccc(F)cc2)n1CC[C@@H](O)C[C@@H](O)CC(=O)O [Atorvastatin] (max concentration tested 10000 nM)	1.87%
CS(=O)(=O)N1CCN(Cc2cc3nc(-c4cccc5[nH]ncc45)nc(N4CCOCC4)c3s2)CC1 [Pictilisib] (max concentration tested 10000 nM)	0.41%
Cc1ccc(Nc2nccc(N(C)c3ccc4c(C)n(C)nc4c3)n2)cc1S(N)(=O)=O [Pazopanib] (max concentration tested 10000 nM)	-13.5%
CCN(CC)CCOc1ccc(C(=C(Cl)c2ccccc2)c2ccccc2)cc1 [Clomifene] (max concentration tested 10000 nM)	-0.72%

###

percent inhibition of viability values, listed per item
- Tested on: KAI3 (IL-2 2.5 ng/mL)
- Test description: percent inhibition of viability; higher = more inhibition
- Test settings: 72 h; 1 nM

Molecule	percent inhibition of viability, %
Cc1ccc(C(=O)Nc2ccc(CN3CCN(C)CC3)c(C(F)(F)F)c2)cc1C#Cc1cnc2cccnn12 [Ponatinib] (max concentration tested 1000 nM)	-3.54
Cc1c(N)nc([C@H](CC(N)=O)NC[C@H](N)C(N)=O)nc1C(=O)N[C@H](C(=O)N[C@H](C)[C@@H](O)[C@H](C)C(=O)N[C@H](C(=O)NCCc1nc(-c2nc(C(=O)NCCC[S+](C)C)cs2)cs1)[C@@H](C)O)[C@@H](OC1OC(CO)C(O)C(O)C1OC1OC(CO)C(O)C(OC(N)=O)C1O)c1cnc[nH]1 (stereo partly drawn) [Bleomycin] (max concentration tested 10000 nM)	-4.06
COc1cc(CCc2cc(NC(=O)c3ccc(N4CC(C)NC(C)C4)cc3)n[nH]2)cc(OC)c1 (stereo not drawn) [AZD4547] (max concentration tested 1000 nM)	0.57
